# Target Of Assay: human 15-PGDH (Homo sapiens, UniProt P15428)
# Construct: comprising residues 3–256 of the human HPGD gene (GenBank identifier: 1203982); His6 (GHHHHHH, behind the TEV site) (C, cleaved yes); made in house; host or cells: E. coli BL21(DE3)-R3
# Method Summary: Differential scanning fluorimetry (DSF), thermal stabilization
# Assay type: binding
# Run Conditions: with 200 µM NAD+; 1 µM protein, compound 50 or 250 µM; N/A = no unfolding transition observed in DSF
Experimental Endpoint: ∆Tm [°C] NAD+ (°C)
Numbers only, in °C.

Example cases with answers are listed next.
CC(O)CN(C)C(C)N(CCN(C)C)CCN(C)C (centres unmarked) [Compound 56]: 6.1
Cc1cc(-c2nnc3n2CCCCC3)c(C)n1-c1ccccc1 [Compound 72]: 5.0
Cc1ccccc1C(=O)N1CCc2ccccc2C1 [Compound 18]: 1.5
Brc1ccc(-c2cc3n(n2)CCc2nc4ccccc4n2-3)cc1 [Compound 55]: 3.7

Proceeding to the next compound to report its ∆Tm [°C] NAD+.
Entry under review: COc1ccc(NS(=O)(=O)Cc2ccccc2Cl)cc1 [Compound 42] . Reported ∆Tm [°C] NAD+?
7.5

###

# Target Of Assay: human 15-PGDH (Homo sapiens)
# Construct: comprising residues 3–256 of the human HPGD gene (GenBank identifier: 1203982); His6 (GHHHHHH, behind the TEV site) (C, cleaved yes); made in house; host or cells: E. coli BL21(DE3)-R3
# Method Summary: Differential scanning fluorimetry (DSF), thermal stabilization
# Type: binding
# Run Conditions: with 200 µM NAD+; 1 µM protein, compound 50 or 250 µM; N/A = no unfolding transition observed in DSF
Provide the recorded ∆Tm [°C] NAD+ for the entries that follow.
Give bare numbers, in °C.

Example cases with answers are listed next.
C=CCOC12Oc3ccc(Oc4ccc(OC)c(C=O)c4)cc3C3C(CCCCO)C(CCCCO)C=C(C(=NOCC)CC1N(CCC)C(=O)OCCOCc1ccccc1)C32 (stereo not drawn) [Compound 14]: 3.2
Cc1cc([N+](=O)[O-])c2c(c1C)[C@@H]1C=CC[C@@H]1C(c1cccc(Cl)c1)N2 (stereo partly drawn) [Compound 37]: 1.1
Cc1ccc(-c2nnc(S)n2N=CC=Cc2ccccc2[N+](=O)[O-])cc1 [Compound 80]: 4.5

Quick one: give me ∆Tm [°C] NAD+ for each item below, same order please.
1. Cc1cccc(-n2cnc3cc(C(=O)N4CCCCC4)ccc32)c1 [Compound 13]
2. CCCCCCCCNCCOCCOCCOCCOCCNCCCCCCCC [Compound 31]
3. CCCC(CCCCCCC(=O)c1cn(CCCC(=O)OCC)c2ccccc12)c1ccc(CC(C)C)cc1 (stereo not drawn) [Compound 34]
4. CC1CCN(C(=O)c2ccc(CSc3ccc(Cl)cc3)cc2)CC1 [Compound 5]
5. C[C@H]1CCCCN1C(=O)CSc1nnc(-c2ccccc2F)o1 [Compound 17]

1: 7.3; 2: 1.1; 3: 2.0; 4: 2.3; 5: 3.3

Quick one: give me ∆Tm [°C] NAD+ for each item below, same order please.
1. CN(Cc1cccc(Cl)c1)c1ccc(S(C)(=O)=O)cc1S(C)(=O)=O [Compound 12]
2. O=C(c1ccc(N2C(=O)C3CC=C(Cl)CC3C2=O)cc1)N1CCCCC1 (stereo not drawn) [Compound 1]
3. Cc1ccc(C2=NC(=CN3CCOCC3)C(=O)O2)cc1 [Compound 54]
4. CCCCCCOCCCCc1ccc(-c2ccc(OCCCCCCC3CC3)nc2)nn1 [Compound 3]
5. Fc1ccccc1CSc1nc2cc(Br)cnc2[nH]1 [Compound 60]

1: 2.2; 2: 3.0; 3: 6.0; 4: 2.1; 5: 7.6

Quick one: give me ∆Tm [°C] NAD+ for each item below, same order please.
1. CC(C)(C)OC(=O)NC(Cc1csc2ccccc12)C(=O)CCc1cc(C(F)(F)F)cc(C(F)(F)F)c1 (stereo not drawn) [Compound 50]
2. COC(=O)c1cc(CNC(=O)C2(c3ccc(Cl)cc3)CC2)ccc1OC [Compound 20]
3. COc1ccccc1C(=O)Nc1ccc(C(=O)N2CCCC2)cc1 [Compound 4]
4. Cc1ccc2cc3c(N)c(C(=O)N4CCC(C)CC4)sc3nc2c1 [Compound 48]
5. COc1ccccc1NS(=O)(=O)c1cc(C(=O)N2CCC2)ccc1C [Compound 30]

1.9
3.1
2.2
0.5
2.4

###

# Target Of Assay: human 15-PGDH (Homo sapiens)
# Construct: comprising residues 3–256 of the human HPGD gene (GenBank identifier: 1203982); His6 (GHHHHHH, behind the TEV site) (C, cleaved yes); made in house; host or cells: E. coli BL21(DE3)-R3
# Method Summary: Differential scanning fluorimetry (DSF), thermal stabilization
# Type: binding
# Run Conditions: without cofactor; 1 µM protein, compound 50 or 250 µM; N/A = no unfolding transition observed in DSF
Provide the recorded ∆Tm [°C] apo for the entries that follow.
Numbers only, in °C.

Example cases with answers are listed next.
Fc1ccccc1CSc1nc2cc(Br)cnc2[nH]1 [Compound 60]: -0.2
CC1CCN(C(=O)c2ccc(CSc3ccc(Cl)cc3)cc2)CC1 [Compound 5]: -0.8

Quick one: give me ∆Tm [°C] apo for each item below, same order please.
1. CC1CCCN(C(=O)c2ccc(COc3ccccc3Br)cc2)C1 (stereo not shown) [Compound 11]
2. COC(=O)c1cc(CNC(=O)C2(c3ccc(Cl)cc3)CC2)ccc1OC [Compound 20]
3. Brc1ccc(-c2cc3n(n2)CCc2nc4ccccc4n2-3)cc1 [Compound 55]
4. Cc1cccc(-n2cnc3cc(C(=O)N4CCCCC4)ccc32)c1 [Compound 13]
5. CN(Cc1cccc(Cl)c1)c1ccc(S(C)(=O)=O)cc1S(C)(=O)=O [Compound 12]

-0.4
0.3
0.1
-1.7
-1.6

Quick one: give me ∆Tm [°C] apo for each item below, same order please.
1. Cc1ccc(C2=NC(=CN3CCOCC3)C(=O)O2)cc1 [Compound 54]
2. CCN(CC)C(=O)c1sc2nc(-c3cccs3)cc(-c3ccc(Cl)cc3)c2c1N [Compound 36]
3. O=C(O)CC1(CO)CC1 [Compound 9]

1. -1.5
2. -1.5
3. -1.1

###

# Target Of Assay: human 15-PGDH (Homo sapiens)
# Construct: comprising residues 3–256 of the human HPGD gene (GenBank identifier: 1203982); His6 (GHHHHHH, behind the TEV site) (C, cleaved yes); made in house; host or cells: E. coli BL21(DE3)-R3
# Sequence (P15428 3-256): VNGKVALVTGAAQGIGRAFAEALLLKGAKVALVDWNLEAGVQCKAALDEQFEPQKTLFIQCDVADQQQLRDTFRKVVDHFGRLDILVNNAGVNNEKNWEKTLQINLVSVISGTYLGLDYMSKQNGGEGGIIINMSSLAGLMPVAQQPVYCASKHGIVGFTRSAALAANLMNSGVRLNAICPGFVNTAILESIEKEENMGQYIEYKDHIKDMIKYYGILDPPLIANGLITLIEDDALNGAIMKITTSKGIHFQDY
# Method Summary: qHTS and 24-point re-test: fluorescence assay of NAD+ reduction to NADH on PGE2 oxidation (PubChem AID 894)
# Type: biochemical
# Run Conditions: control inhibitor, 16-point dilution series in duplicate on every qHTS plate; read-out: average IC50
Experimental Endpoint: IC50
I'd appreciate it if you included the unit after the number.

Entry under review: O=C1Nc2ccc(I)cc2/C1=C/c1cc(Br)c(O)c(Br)c1 [GW5074, reference compound] . Reported IC50?
10.4 µM

###

# Target Of Assay: human 15-PGDH (Homo sapiens, UniProt P15428)
# Construct: comprising residues 3–256 of the human HPGD gene (GenBank identifier: 1203982); His6 (GHHHHHH, behind the TEV site) (C, cleaved yes); made in house; host or cells: E. coli BL21(DE3)-R3
# Method Summary: qHTS and 24-point re-test: fluorescence assay of NAD+ reduction to NADH on PGE2 oxidation (PubChem AID 894)
# Assay type: biochemical
# Run Conditions: potency in 24-point titrations on re-test; 20 nM 15-PGDH, 1 mM NAD+, 30 µM PGE2, pH 8.0
Experimental Endpoint: qHTS IC50 [nM]

Example cases with answers are listed next.
CCNC(=S)NN=Cc1cccn1-c1ccccc1: inactive
CC(C)(C)c1ccc(C(=O)O/N=C(\N)c2ccc(Cl)cc2)cc1: inactive
COCCNC(=O)C1CSC(c2ccccc2)N1C(=O)c1ccc(OC)c(OC)c1 (stereo not shown): inactive
Cc1ccc2nc(SCC(=O)N3CCCC[C@@H]3C)c(C#N)cc2c1: Inactive

Quick one: give me qHTS IC50 [nM] for each item below, same order please.
1. Cc1c(Cl)cccc1NC(=O)CNC(=O)c1cncn1-c1ccc(F)cc1
2. COc1ccc(N2CCN(C(=O)c3ccc(CSc4ccccc4)cc3)CC2)cc1
3. Fc1ccccc1-c1nnc(SCCc2ccncc2)n1C1CC1

1. Inactive
2. Inactive
3. Inactive

The measured values listed here are drawn from paper PMC2970562.
